target: T1, VEGF (human, UniProt P15692-4 27-191, limits assumed); test: BIAcore-2000 SPR, Fab over immobilized VEGF, 25 C
T1 construct: Biotinylated in the KDR-IgG ELISA, amine-coupled to the chip in BIAcore; also called biotinylated VEGF; vascular endothelial growth factor
T1 sequence (P15692 other isoform, or with tags, fused parts or gaps limits assumed): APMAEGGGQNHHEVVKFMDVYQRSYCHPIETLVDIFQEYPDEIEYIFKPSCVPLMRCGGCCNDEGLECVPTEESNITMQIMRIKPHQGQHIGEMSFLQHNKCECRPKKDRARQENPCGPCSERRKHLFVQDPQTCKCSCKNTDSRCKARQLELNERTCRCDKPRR
value kind: kon (M⁻¹ s⁻¹)
The response must be a number in M⁻¹ s⁻¹ with no trailing unit.

Prompt line: Annotate the binder Y0313-1 (Fab, V domains shown, Soluble Fab; Y0243-1 with VH3 H101Y and S105T) VH: EVQLVESGGGLVQPGGSLRLSCAASGYDFTHYGMNWVRQAPGKGLEWVGWINTYTGEPTYAADFKRRFTFSLDTSKSTAYLQMNSLRAEDTAVYYCAKYPYYYGTSHWYFDVWGQGTL VL: DIQLTQSPSSLSASVGDRVTITCRANEQLSNYLNWYQQKPGKAPKVLIYFTSSLHSGVPSRFSGSGSGTDFTLTISSLQPEDFATYYCQQYSTVPWTFGQGTKVEIKR with its measured kon.
Response line: 35000

Prompt line: Annotate the binder Y0244-4 (Fab, V domains shown, Soluble Fab) VH: EVQLVESGGGLVQPGGSLRLSCAASGYTFTNYGINWVRQAPGKGLEWVGWINTYTGEPTYAADFKRRFTFSIDKSKSTAYLQMNSLRAEDTAVYYCAKYPHYYGSSHWYFDVWGQGTL VL: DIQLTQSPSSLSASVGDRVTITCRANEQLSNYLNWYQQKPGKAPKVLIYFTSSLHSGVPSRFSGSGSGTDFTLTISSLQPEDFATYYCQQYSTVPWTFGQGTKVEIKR with its measured kon.
Response line: 52000

Prompt line: Annotate the binder Y0238-3 (Fab, V domains shown, Soluble Fab) VH: EVQLVESGGGLVQPGGSLRLSCAASGYTFTNYGINWVRQAPGKGLEWVGWINTYTGEPTYAADFKRRFTFSLDTSKSTAYLQMNSLRAEDTAVYYCAKYPYYYGTSHWYFDVWGQGTL VL: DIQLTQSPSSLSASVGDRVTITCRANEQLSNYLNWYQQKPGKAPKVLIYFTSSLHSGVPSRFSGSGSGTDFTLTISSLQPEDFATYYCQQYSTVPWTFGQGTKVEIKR with its measured kon.
Response line: 17000
